Target: HDAC8 (histone deacetylase 8) (Homo sapiens, UniProt Q9BY41)
Sequence (Q9BY41 1-377): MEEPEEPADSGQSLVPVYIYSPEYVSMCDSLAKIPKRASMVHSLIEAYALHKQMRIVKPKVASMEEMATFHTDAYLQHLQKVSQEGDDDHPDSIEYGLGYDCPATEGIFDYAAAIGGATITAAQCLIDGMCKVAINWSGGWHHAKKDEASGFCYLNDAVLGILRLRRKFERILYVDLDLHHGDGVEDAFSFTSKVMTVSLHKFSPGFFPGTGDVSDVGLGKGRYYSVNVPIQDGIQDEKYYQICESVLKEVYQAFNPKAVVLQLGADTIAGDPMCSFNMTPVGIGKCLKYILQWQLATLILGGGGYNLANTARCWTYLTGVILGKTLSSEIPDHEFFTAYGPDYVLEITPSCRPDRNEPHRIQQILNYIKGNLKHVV
pKi: −log10 of the molar value.
Below, each entry is listed alongside its reported pKi.
assayEndpoint: pKi

smilesData: CCCCCC(=O)O
assayEndpoint: pKi
observedValue: 2.63
--
smilesData: CCCCCCCCCC(=O)O
assayEndpoint: pKi
observedValue: 2.35

Recorded values, source paper PMC8669121.
